test: soluble on expression in E. coli; label from the status in PepcDB or PDB records
result-type: soluble on expression in E. coli

Consider the reported soluble on expression in E. coli for these sequences:
MGSDKIHHHHHHMQKEQCYMCEKSATSAEHVPPKCLFPEFKDAKKNLRVNLITVPSCDEHNGKKSHDDEFLMVSIAGIIGNNSIGYQHYSGKIQRALRRTSYKLLEKVFLRKELVRIGDENKFIEILWGTPDYERLINCFSHIAYGIYHHHFKQKFYGVLKPYLGFLHTNEQNPKAFKAFIKEKVRVELADEPKYGDNLEVFYYQFTKPDNFGIFLVKLCFYQNVDVFVSYMPSGAQKPTHLGFELMNRGIKTIITLGDKEYEFN = not soluble
EFIGCNDHTVVIEDDGRRWVTREPALVYFNKHTWFNVVAMIRDSGVSYYCNIASPFVLDREALKYVDYDLDVKVFPNGERRLLDMDEFEQFSKKWRYP = not soluble
MSKAKIGIVTVSDRASAGIYEDISGKAIIDTLNDYLTSEWEPIYQVIPDEQDVIETTLIKMADEQDCCLIVTTGGTGPAKRDVTPEATEAVCDRMMPGFGELMRAESLKFVPTAILSRQTAGLRGDSLIVNLPGKPKSIRECLDAVFPAIPYCIDLMEGPYLECNEAVIKPFRPKAK = soluble
MRRVLFSCFCGLLWSSSGWAVDPLGTININLHGNVVDFSCTVNTADIDKTVDLGRWPTTQLLNAGDTTALVPFSLRLEGCPPGSVAILFTGTPASDTNLLALDDPAMAQTVAIELRNSDRSRLALGEASPTEEVDANGNVTLNFFANYRALASGVRPGVAKADAIFMINYN = not soluble
MTKSLPGVADLRLGANHPRMWTRRVQGTVVNVGVKVLPWIPTPAKRILSAGRSVIIDGNTLDPTLQLMLSTSRIFGVDGLAVDDDIVASRAHMRAICEAMPGPQIHVDVTDLSIPGPAGEIPARHYRPSGGGATPLLVFYHGGGWTLGDLDTHDALCRLTCRDADIQVLSIDYRLAPEHPAPAAVEDAYAAFVWAHEHASDEFGALPGRVAVGGDSAGGNLSAVVCQLARDKARYEGGPTPVLQWLLYPRTDFTAQTRSMGLFGNGFLLTKRDIDWFHTQYLRDSDVDPADPRLSPLLAESLSGLAPALIAVAGFDPLRDEGESYAKALRAAGTAVDLRYLGSLTHGFLNLFQLGGGSAAGTNELISALRAHLSRV = soluble
GSHMDASKIDQPDLAEVANASLDKKQVIGRISIPSVSLELPVLKSSTEKNLLSGAATVKENQVMGKGNYALAGHNMSKKGVLFSDIASLKKGDKIYLYDNENEYEYAVTGVSEVTPDKWEVVEDHGKDEITLITCVSVKDNSKRYVVAGDLVGTKAKK = soluble

Now for a further sequence.
Please report the measured soluble on expression in E. coli for LKVSEPAPKGFLIIGANDVARQVGLAIAKYDCRVVVTDSNWDYIRQARMTGLEHYYGNPISSHAEDYLNLIGIGHVLALSPDKHFNIMACMQFLSDFGDKRVFCLNDNPTNNVSEKHLVAQEYHGLPFLGGEVSYKKLASLVGQGAEVKHTKLS
not soluble

----------
experiment: soluble on expression in E. coli; label from the status in PepcDB or PDB records
result-type: soluble on expression in E. coli

Consider the reported soluble on expression in E. coli for these sequences:
MSRAVTRSRLNSTTDQFMAEKINESDILERLNQTHTVRGFFITTVDVLTEAIDALMQRIFRKDNFAVKSVVEPLLHDTGPLGDLTVRLKLLFGLGVIPDEVFHDIEHLIKLRNQLNHDATEYQFTDPQILAPIKALNLVKKMGMLHLNVVEPDDDIDLSFYHLQLQRQQQVIKSGLSLAIIQICNALNK = not soluble
MSEQKQDVAATEEQQPVLQIQRIYVKDVSFEAPNLPHIFQQEWKPKLGFDLSTETTQVGDDLYEVVLNISVETTLEDSGDVAFICEVKQAGVFTISGLEDVQMAHCLTSQCPNMLFPYARELVSNLVNRGTFPALNLSPVNFDALFVEYMNRQQAENAEEKSEEEQTKH = soluble
MIDMFHINIPFKKDVIIEMGDCGFVDFAKLAEKTELKIACGNVEFSVVNDQKKVRTDDLYHPWSTIPSSYTDIACKVFDAEPRANVFWGYLQLKASPAKVMQGHNVYGSEDFRLCVEYLLDSLQKAQPELWELLDVGLAEMTRIDCTYSIKCANPDILRQTIKQMGNVSNRYIKPARNSDFETTLYFNRATKANPGAGRSFELCIYTKHDEIAHQLADLKRRARQGDSDRFNRIIDELSKPELQAFAANRLRFEGRAKKRFIQKHVGSANLWQVIRHAEQFEAKNGYRFCEWMFKTLFHDLLESLKGEELELYNDSKIKQLLRDAYSTMTPKLEHHHHHH = soluble
MDIQIKRAYEPADPADGCRILVDRLWPRGLTKQQVACDLWLKEIAPTADLRKWFNHDPAKWAEFQRRYRDELSVNPCVKELLDRAAKGRLTLLYGARDAECNQAVVLRDYLLERN = not soluble
MGSDKIHHHHHHMAAGRDTALLMMNLMNAPVPLSPALELALPVDTAVVGVGYFGSLHALCYSRLPGSRLQALIDPDPITQFLAEHLGVPWFPGVAELPSTIRAVSVATPVAMHFGLTRSLLQQGLDVLLEKPIAETAAQATELRMVAEANQCILQIGHIERFNPAYTAGGTLLPFARTVRSVRTTRHPPRSSALDVVIDLMIHDLDLILHSLDSSVVELRASGRSCGLTAIDEAEVELTFSNGCRVYLDAHWGRDTEQDARCMVAELENDETWVIDFRRRMTYRKEPGSSTGPLPADGHTLPFPMQRIQEDTLSLQLAAFLDACRNRSLPRVTPAEGNAALELAHCIRQQILRPCP = not soluble

Please report the measured soluble on expression in E. coli for MTRIIASLSEVSAGYSALFCDLWGCLHDGKRPFAEAVEALRAFRARGGTVLLMTNAPRPKPSVVRQLESIGVPPDCYDEVTSSGDAAQYALVTGAVGRRVYHLGPQKDETFFTELSPDLQKVAATEAPIVRVPLEEAEGIVCTGLFDDLTETPEDYRATLLYAKTQGLKLLCANPDIVVDFGDKRIYCAGAIAEAYDAMGGQSLYFGKPHPPIYDLARRRLEALRPGVPADEILCVGDGIATDIRGAVAEGLDSLFITGGLAASVFGENGE
not soluble
